All values here come from PubChem BioAssay.

Assay: probe aEGFR binding to arrayed compounds – biochemical, biotinylated probe, 635/667 nm fluorescence, primary screen (AID 1097);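 note: probe is a biotinylated anti-EGFR antibody binding compounds printed on slides; score combines fluorescence near 667 nm and signal to noise of each spot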
Conditions: higher = more signal; small-molecule microarray, probe aEGFR, fluorescence unless noted
# if value of composite z-score reaches -0.1, tag label 1; if it stays below, tag label 0

The examples below pair each entry with its known result.
{"columns": ["molecule", "label-value"],
 "data": [
  ["COC(=O)[C@H]1[C@H](c2ccccc2)C(=O)[C@]2(O)c3ccccc3O[C@@]12c1ccccc1", "label 0"],
  ["CN1CCC(c2ccc(CO)cc2)=CC1c1cccs1 (stereo unspecified)", "label 1"],
  ["c1ccc(-c2cc3c(nc2-c2ccccc2)CCNC3)cc1", "label 0"],
  ["COc1cc2c(cc1O)C(C)N(C)CC2 (stereo unspecified)", "label 1"]
]}

Prompt line: For this molecule, is measured composite z-score -0.1 or higher? CN1CCC(c2ccc(CO)cc2)=CC1C1CC1 (stereo unspecified)
Response line: label 0

Prompt line: For this molecule, is measured composite z-score -0.1 or higher? CCCC[C@@H]1C[C@H]1[C@@H](NP(=O)(c1ccccc1)c1ccccc1)c1ccc(Cl)cc1
Response line: label 0
